Biological target: Voltage-gated inwardly rectifying potassium channel KCNH2 (Homo sapiens)
Sequence (Q12809 whole entry): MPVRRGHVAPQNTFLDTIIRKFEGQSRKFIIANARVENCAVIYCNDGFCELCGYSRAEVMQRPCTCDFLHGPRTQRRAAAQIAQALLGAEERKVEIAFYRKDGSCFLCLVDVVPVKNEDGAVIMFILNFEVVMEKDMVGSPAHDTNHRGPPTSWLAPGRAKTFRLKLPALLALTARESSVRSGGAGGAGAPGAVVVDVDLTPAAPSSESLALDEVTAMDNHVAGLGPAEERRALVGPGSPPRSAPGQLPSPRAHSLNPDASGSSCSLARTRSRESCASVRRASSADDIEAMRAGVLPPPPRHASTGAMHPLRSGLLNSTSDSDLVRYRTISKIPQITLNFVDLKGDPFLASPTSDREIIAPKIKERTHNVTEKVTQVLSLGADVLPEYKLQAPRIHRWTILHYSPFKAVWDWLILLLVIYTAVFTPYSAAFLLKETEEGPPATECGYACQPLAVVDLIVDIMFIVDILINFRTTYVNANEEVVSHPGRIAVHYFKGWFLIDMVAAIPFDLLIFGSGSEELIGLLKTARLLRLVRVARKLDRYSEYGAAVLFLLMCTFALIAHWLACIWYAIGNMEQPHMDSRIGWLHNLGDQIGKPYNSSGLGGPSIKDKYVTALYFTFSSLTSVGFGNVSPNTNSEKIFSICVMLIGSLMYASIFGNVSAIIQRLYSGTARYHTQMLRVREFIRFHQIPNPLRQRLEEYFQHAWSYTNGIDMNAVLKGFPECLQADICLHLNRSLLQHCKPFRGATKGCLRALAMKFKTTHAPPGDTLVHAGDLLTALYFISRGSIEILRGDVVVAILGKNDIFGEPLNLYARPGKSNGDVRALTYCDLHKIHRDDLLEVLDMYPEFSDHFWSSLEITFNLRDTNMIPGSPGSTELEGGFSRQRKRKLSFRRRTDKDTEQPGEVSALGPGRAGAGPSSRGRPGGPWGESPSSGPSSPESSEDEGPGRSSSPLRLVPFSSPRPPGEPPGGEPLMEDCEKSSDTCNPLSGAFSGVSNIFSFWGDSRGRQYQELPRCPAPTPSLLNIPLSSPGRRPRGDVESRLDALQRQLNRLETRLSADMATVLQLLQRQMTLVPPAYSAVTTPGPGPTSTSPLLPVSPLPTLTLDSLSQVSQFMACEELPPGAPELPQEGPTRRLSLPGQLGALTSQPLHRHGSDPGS
pIC50: −log10 of the molar value.

{"test_smiles": "C=CC(=O)N[C@H]1CCN(c2ccc(C(N)=O)c(Nc3ccc(C(=O)N4CCOCC4)cc3)n2)C1", "system_under_test": "Voltage-gated inwardly rectifying potassium channel KCNH2 (Homo sapiens)", "pIC50": "< 5.00"}
